test system: Rh18 complex spheroid viability, percent test/control; experiment: Anticancer human tumor Rh18 cell line growth inhibition [Asc]; conditions: second compound 0.316 µM; first compound 0.1 µM; active compounds read low;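 also: spheroids exposed to compound for 7 days; 100% = DMSO vehicle control wells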
Overview of reported viability, T/C across a group of compounds:

C=CC(=O)N1CCN(c2nc(=O)n(-c3c(C)ccnc3C(C)C)c3nc(-c4c(O)cccc4F)c(F)cc23)C(C)C1 (stereo not drawn) + Cc1c(S(C)(=O)=O)c(-c2cc(F)cc(N3CCN(c4ccc(NS(=O)(=O)c5ccc(NC(CCN6CCC(C(=O)OCCCP(=O)(O)O)CC6)CSc6ccccc6)c(S(=O)(=O)C(F)(F)F)c5)cc4)CC3)c2)c(-c2ccc(Cl)cc2)n1C(C)C: 11.5%
COc1c(OCCCN2CCOCC2)ccc2c3n(c(=NC(=O)c4cnc(N)nc4)nc12)CCN3 + CNC(C)C(=O)NC1CN(S(=O)(=O)c2cccc(S(=O)(=O)N3CCC4CCC(C(=O)NC(c5ccccc5)c5ccccc5)N4C(=O)C(NC(=O)C(C)NC)C3)c2)CCC2CCC(C(=O)NC(c3ccccc3)c3ccccc3)N2C1=O: 2.64%

Turning to the following compound.
Supply measured viability, T/C of C#Cc1c(F)ccc2cc(O)cc(-c3ncc4c(N5CC6CCC(C5)N6)nc(OCC56CCCN5CC(F)C6)nc4c3F)c12 (stereo not drawn) + Cc1c(S(C)(=O)=O)c(-c2cc(F)cc(N3CCN(c4ccc(NS(=O)(=O)c5ccc(NC(CCN6CCC(C(=O)OCCCP(=O)(O)O)CC6)CSc6ccccc6)c(S(=O)(=O)C(F)(F)F)c5)cc4)CC3)c2)c(-c2ccc(Cl)cc2)n1C(C)C in your reply.
10.6%

###

tested on: Rh18 complex spheroid viability, percent test/control; test: Anticancer human tumor Rh18 cell line growth inhibition [Asc]; details: second compound 10 µM; first compound 0.00316 µM; active compounds read low;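 also: spheroids exposed to compound for 7 days; 100% = DMSO vehicle control wells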
assayReadout: viability, T/C (%)
Respond with the bare value in %.

Past entries and their recorded results:
Cn1ncnc1[C@H]1c2n[nH]c(=O)c3cc(F)cc(c23)N[C@@H]1c1ccc(F)cc1 + Cc1c(S(C)(=O)=O)c(-c2cc(F)cc(N3CCN(c4ccc(NS(=O)(=O)c5ccc(NC(CCN6CCC(C(=O)OCCCP(=O)(O)O)CC6)CSc6ccccc6)c(S(=O)(=O)C(F)(F)F)c5)cc4)CC3)c2)c(-c2ccc(Cl)cc2)n1C(C)C: 6.36
O=C(c1ccc(F)c(F)c1Nc1ccc(I)cc1F)N1CC(O)([C@@H]2CCCCN2)C1 + Cc1c(S(C)(=O)=O)c(-c2cc(F)cc(N3CCN(c4ccc(NS(=O)(=O)c5ccc(NC(CCN6CCC(C(=O)OCCCP(=O)(O)O)CC6)CSc6ccccc6)c(S(=O)(=O)C(F)(F)F)c5)cc4)CC3)c2)c(-c2ccc(Cl)cc2)n1C(C)C: 5.3

Turning to the following molecule.
For Rh18 complex spheroid viability, percent test/control, give the measured viability, T/C of the entry CCN1CCN(Cc2ccc(Nc3ncc(F)c(-c4cc(F)c5nc(C)n(C(C)C)c5c4)n3)nc2)CC1 + Cc1c(S(C)(=O)=O)c(-c2cc(F)cc(N3CCN(c4ccc(NS(=O)(=O)c5ccc(NC(CCN6CCC(C(=O)OCCCP(=O)(O)O)CC6)CSc6ccccc6)c(S(=O)(=O)C(F)(F)F)c5)cc4)CC3)c2)c(-c2ccc(Cl)cc2)n1C(C)C
4.28

###

test system: Rh18 complex spheroid viability, percent test/control; experiment: Anticancer human tumor Rh18 cell line growth inhibition [Asc]; settings: second compound 0.316 µM; first compound 0.00949 µM; active compounds read low;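 also: spheroids exposed to compound for 7 days; 100% = DMSO vehicle control wells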
assayReadout: viability, T/C (%)
Respond with the bare value in %.

Past entries and their recorded results:
Cc1nc(N2CCC3(CC2)COC(C)C3N)c(CO)nc1Sc1ccnc(N)c1Cl (stereo not drawn) + Cc1c(S(C)(=O)=O)c(-c2cc(F)cc(N3CCN(c4ccc(NS(=O)(=O)c5ccc(NC(CCN6CCC(C(=O)OCCCP(=O)(O)O)CC6)CSc6ccccc6)c(S(=O)(=O)C(F)(F)F)c5)cc4)CC3)c2)c(-c2ccc(Cl)cc2)n1C(C)C: 8.93
NC(=O)C(=Cn1cnc(-c2cc(C(F)(F)F)cc(C(F)(F)F)c2)n1)c1cncnc1 + CNC(C)C(=O)NC1CN(S(=O)(=O)c2cccc(S(=O)(=O)N3CCC4CCC(C(=O)NC(c5ccccc5)c5ccccc5)N4C(=O)C(NC(=O)C(C)NC)C3)c2)CCC2CCC(C(=O)NC(c3ccccc3)c3ccccc3)N2C1=O: 38.7

Turning to the following molecule.
Supply measured viability, T/C of CCN1C(C(=O)NC23CCC(C(=O)O)(CC2)CC3)C(c2cccc(Cl)c2F)C2(C(=O)Nc3cc(Cl)ccc32)C12CCCCC2 (stereo not drawn) + Cc1c(S(C)(=O)=O)c(-c2cc(F)cc(N3CCN(c4ccc(NS(=O)(=O)c5ccc(NC(CCN6CCC(C(=O)OCCCP(=O)(O)O)CC6)CSc6ccccc6)c(S(=O)(=O)C(F)(F)F)c5)cc4)CC3)c2)c(-c2ccc(Cl)cc2)n1C(C)C in your reply.
12

###

Tested on: Rh18 complex spheroid viability, percent test/control
Assay: Anticancer human tumor Rh18 cell line growth inhibition [Asc];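 also: spheroids exposed to compound for 7 days; 100% = DMSO vehicle control wells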
Details: second compound 0.03 µM; first compound 0.00316 µM; active compounds read low
Description: Multicellular complex tumor spheroid response to apoptosis pathway targeting inhibitors Alrizomadlin, Pelcitoclax, and Dasminapant in combination with a variety of drugs and investigational agents in selected tumor cell lines […] Compounds. […] If the clinical Cmax for an agent had not been determined, the highest concentration tested was 10 microM. […]
assayReadout: viability, T/C (%)
Respond with the bare value in %.

Past entries and their recorded results:
CNC(C)C(=O)NC1CN(S(=O)(=O)c2cccc(S(=O)(=O)N3CCC4CCC(C(=O)NC(c5ccccc5)c5ccccc5)N4C(=O)C(NC(=O)C(C)NC)C3)c2)CCC2CCC(C(=O)NC(c3ccccc3)c3ccccc3)N2C1=O (stereo unspecified) + CCN1C(C(=O)NC23CCC(C(=O)O)(CC2)CC3)C(c2cccc(Cl)c2F)C2(C(=O)Nc3cc(Cl)ccc32)C12CCCCC2: 30.1
Cn1ncnc1[C@H]1c2n[nH]c(=O)c3cc(F)cc(c23)N[C@@H]1c1ccc(F)cc1 + CCN1C(C(=O)NC23CCC(C(=O)O)(CC2)CC3)C(c2cccc(Cl)c2F)C2(C(=O)Nc3cc(Cl)ccc32)C12CCCCC2: 45.6
O=C(c1ccc(F)c(F)c1Nc1ccc(I)cc1F)N1CC(O)([C@@H]2CCCCN2)C1 + CCN1C(C(=O)NC23CCC(C(=O)O)(CC2)CC3)C(c2cccc(Cl)c2F)C2(C(=O)Nc3cc(Cl)ccc32)C12CCCCC2: 35.4
CCN1CCN(Cc2ccc(Nc3ncc(F)c(-c4cc(F)c5nc(C)n(C(C)C)c5c4)n3)nc2)CC1 + CCN1C(C(=O)NC23CCC(C(=O)O)(CC2)CC3)C(c2cccc(Cl)c2F)C2(C(=O)Nc3cc(Cl)ccc32)C12CCCCC2: 42.9
NC1CCC(NC2CC2c2ccccc2)CC1 (stereo unspecified) + CCN1C(C(=O)NC23CCC(C(=O)O)(CC2)CC3)C(c2cccc(Cl)c2F)C2(C(=O)Nc3cc(Cl)ccc32)C12CCCCC2: 30.4

Turning to the following molecule.
Supply measured viability, T/C of COc1c(OCCCN2CCOCC2)ccc2c3n(c(=NC(=O)c4cnc(N)nc4)nc12)CCN3 + CCN1C(C(=O)NC23CCC(C(=O)O)(CC2)CC3)C(c2cccc(Cl)c2F)C2(C(=O)Nc3cc(Cl)ccc32)C12CCCCC2 in your reply.
36.4

###

system: Rh18 complex spheroid viability, percent test/control; test: Anticancer human tumor Rh18 cell line growth inhibition [Asc]; settings: second compound 0.316 µM; first compound 0.00316 µM; active = viability on the fitted dose curve at most 10% of control; inactive = the rest;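 also: spheroids exposed to compound for 7 days; 100% = DMSO vehicle control wells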
The reply should be one of these categories: active, inactive

CNC(C)C(=O)NC1CN(S(=O)(=O)c2cccc(S(=O)(=O)N3CCC4CCC(C(=O)NC(c5ccccc5)c5ccccc5)N4C(=O)C(NC(=O)C(C)NC)C3)c2)CCC2CCC(C(=O)NC(c3ccccc3)c3ccccc3)N2C1=O (configuration not stated) + Cc1c(S(C)(=O)=O)c(-c2cc(F)cc(N3CCN(c4ccc(NS(=O)(=O)c5ccc(NC(CCN6CCC(C(=O)OCCCP(=O)(O)O)CC6)CSc6ccccc6)c(S(=O)(=O)C(F)(F)F)c5)cc4)CC3)c2)c(-c2ccc(Cl)cc2)n1C(C)C: active

Here is another compound to look at.
What was the test verdict on O=C(c1ccc(F)c(F)c1Nc1ccc(I)cc1F)N1CC(O)([C@@H]2CCCCN2)C1 + CNC(C)C(=O)NC1CN(S(=O)(=O)c2cccc(S(=O)(=O)N3CCC4CCC(C(=O)NC(c5ccccc5)c5ccccc5)N4C(=O)C(NC(=O)C(C)NC)C3)c2)CCC2CCC(C(=O)NC(c3ccccc3)c3ccccc3)N2C1=O ?
inactive

###

system: Rh18 complex spheroid viability, percent test/control; test: Anticancer human tumor Rh18 cell line growth inhibition [Asc]; conditions: second compound 3 µM; first compound 0.00316 µM; active compounds read low;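 also: spheroids exposed to compound for 7 days; 100% = DMSO vehicle control wells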
Overview of reported viability, T/C across a group of compounds:
Respond with the bare value in %.

Past entries and their recorded results:
CCN1CCN(Cc2ccc(Nc3ncc(F)c(-c4cc(F)c5nc(C)n(C(C)C)c5c4)n3)nc2)CC1 + CCN1C(C(=O)NC23CCC(C(=O)O)(CC2)CC3)C(c2cccc(Cl)c2F)C2(C(=O)Nc3cc(Cl)ccc32)C12CCCCC2: 8.98
Cn1ncnc1[C@H]1c2n[nH]c(=O)c3cc(F)cc(c23)N[C@@H]1c1ccc(F)cc1 + CCN1C(C(=O)NC23CCC(C(=O)O)(CC2)CC3)C(c2cccc(Cl)c2F)C2(C(=O)Nc3cc(Cl)ccc32)C12CCCCC2: 9.33

Turning to the following compound.
Supply measured viability, T/C of O=C(c1ccc(F)c(F)c1Nc1ccc(I)cc1F)N1CC(O)([C@@H]2CCCCN2)C1 + CCN1C(C(=O)NC23CCC(C(=O)O)(CC2)CC3)C(c2cccc(Cl)c2F)C2(C(=O)Nc3cc(Cl)ccc32)C12CCCCC2 in your reply.
8.3
